Target: Toll-like receptor 1/2 (Homo sapiens, UniProt O60603+Q15399)
Test: Agonist activity at TLR1/TLR2 in human THP-1 derived macrophages assessed as stimulation of TNF alpha release measured for 4 hrs by ELISA based assay relative to diprovocim-1
Assay type: cell-based
Conditions: filed as agonist
Metric name: Emax (%)

1. CCCCCCCCCCNC(=O)[C@@H]1CN(C(=O)c2ccc(C(=O)N3C[C@@H](C(=O)N[C@H]4C[C@@H]4c4ccccc4)[C@H](C(=O)N[C@H]4C[C@@H]4c4ccccc4)C3)cc2)C[C@H]1C(=O)N[C@H]1C[C@@H]1c1ccccc1 ... 100
2. CCCCNC(=O)[C@@H]1CN(C(=O)c2ccc(C(=O)N3C[C@@H](C(=O)N[C@H]4C[C@@H]4c4ccccc4)[C@H](C(=O)N[C@H]4C[C@@H]4c4ccccc4)C3)cc2)C[C@H]1C(=O)N[C@H]1C[C@@H]1c1ccccc1 ... 120
